Below, each of the compounds is paired with its reported Population Hoechst High Intensity Objects (%) value.
- Test system: HEK-293T
- Procedure Details: Multiplex assay against HEK293T
- Format: toxicity, cell-based
- Test Settings: human, 12 h, 10 µM, compound concentration 10 uM
Unit % implied. Number only.

Cn1ncnc1COc1nn2c(-c3cc(F)ccc3F)nnc2cc1C(C)(C)C: 0
CC(/C=C1\SC(=S)N(CCCC(=O)Nc2ccc(C(=O)O)c(O)c2)C1=O)=C\c1ccccc1: 7
O=C(NCc1cccc(O)c1)Nc1nc(-c2ccncc2)cs1: 0
COCCNc1cc(NC(=O)N2CCCc3cc(CN4CCN(C)CC4=O)c(C=O)nc32)ncc1C#N: 0
COc1cc(/C=C(\C#N)C(=O)Nc2nnc(C(F)(F)F)s2)ccc1OCc1ccc(C(F)(F)F)cc1C(F)(F)F: 0

Lab note: next compound to report on.
Record C[C@H](C[C@H](N)C(=O)O)C(=O)O [2S,4R-4-METHYLGLUTAMATE] , field Population Hoechst High Intensity Objects (%): 0

###

Below, each of the compounds is paired with its reported Population Pyknosed Nuclei (%) value.
- Tested on: U2OS
- Procedure Details: Multiplex assay against U2OS
- Format: toxicity, cell-based
- Test Settings: human, 48 h, 10 µM, compound concentration 10 uM
Unit % implied. Number only.

Form field, Population Pyknosed Nuclei (%) with U2OS, item CCCN1CCC[C@@H]2Cc3n[nH]cc3C[C@H]21.Cl [QUINPIROLE HYDROCHLORIDE] : 9

###

- Tested on: U2OS
- Procedure Details: Multiplex assay against U2OS
- Type: toxicity, cell-based
- Test Settings: human, 48 h, 1 µM, compound concentration 1 uM
Quantity Kind: Population Membrane Permeable-Phenotype (%)
Unit % implied. Number only.

Example compounds with recorded Population Membrane Permeable-Phenotype (%):
CN1CCN(c2cc(-c3ccccc3)nc(N)n2)CC1: 5
CC(=O)Nc1cccc2c1c(Sc1ccc(Cl)cc1)c(C)n2CC(=O)O [AZD1981]: 6
OCCCNc1cc(-c2ccnc(Nc3cccc(Cl)c3)n2)ccn1: 30

Lab note: next compound to report on.
Record CCCN1CCC[C@@H]2Cc3n[nH]cc3C[C@H]21.Cl [QUINPIROLE HYDROCHLORIDE] , field Population Membrane Permeable-Phenotype (%): 4

###

Below, each of the molecules is paired with its reported Population Hoechst High Intensity Objects (%) value.
- Tested on: HEK-293T
- Procedure Details: Multiplex assay against HEK293T
- Type: toxicity, cell-based
- Test Settings: human, 12 h, 1 µM, compound concentration 1 uM
Unit % implied. Number only.

CC(/C=C1\SC(=S)N(CCCC(=O)Nc2ccc(C(=O)O)c(O)c2)C1=O)=C\c1ccccc1: 6
CN(C)Cc1cccc(NC(=C2C(=O)Nc3cc(C(=O)N(C)C)ccc32)c2ccccc2)c1: 0
COCCNc1cc(NC(=O)N2CCCc3cc(CN4CCN(C)CC4=O)c(C=O)nc32)ncc1C#N: 0

Lab note: next molecule to report on.
Record "CC(C)(O)c1cnc(N2C[C@@]3(CCC[C@](C)(Cn4cnc5ccc(C#N)cc54)C3)OC2=O)cn1" , field Population Hoechst High Intensity Objects (%): 0

###

- System: U2OS
- Procedure Details: Multiplex assay against U2OS
- Format: toxicity, cell-based
- Test Settings: human, 12 h, 10 µM, compound concentration 10 uM
Quantity Kind: Population Pyknosed Nuclei (%)
Unit % implied. Number only.

Example compounds with recorded Population Pyknosed Nuclei (%):
CN(C)C(=O)Cn1cc(-c2ccc(-c3nnc4ccccn34)cc2)cn1: 7
COc1c(Nc2ccc(S(C)(=O)=O)nc2C)ncnc1OC1CCN(C(=O)OC(C)C)CC1: 11
CN(C)C/C=C/C(=O)Nc1ccc(C(=O)N2CCCC(Nc3ncc(Cl)c(-c4c[nH]c5ccccc45)n3)C2)cc1 (stereo not given): 20

Record "COc1ccccc1N1CCN(CCCCNC(=O)c2ccc3ccccc3c2)CC1.Cl" , field Population Pyknosed Nuclei (%): 30

Record "Cc1nn(C)c2nc(NNC(=O)Nc3cc(Cl)nc(Cl)c3)cc(C(C)C)c12" , field Population Pyknosed Nuclei (%): 21

###

- System: U2OS
- Procedure Details: Multiplex assay against U2OS
- Type: toxicity, cell-based
- Test Settings: human, 12 h, 10 µM, compound concentration 10 uM
Quantity Kind: Population Hoechst High Intensity Objects (%)
Unit % implied. Number only.

Cc1cc(NC(=O)c2cccc(NC(=O)/C=C/CN(C)C)c2)ccc1Nc1nccc(-c2cccnc2)n1: 0

Record "Cl.O=S(=O)(c1cccc2c(I)cccc12)N1CCCNCC1" , field Population Hoechst High Intensity Objects (%): 0

Record Cc1[nH]nc2ccc(-c3cncc(OCC(N)Cc4c[nH]c5ccccc45)c3)cc12 (stereo not drawn) , field Population Hoechst High Intensity Objects (%): 0

###

- System: U2OS
- Procedure Details: Multiplex assay against U2OS
- Format: toxicity, cell-based
- Test Settings: human, 12 h, 1 µM, compound concentration 1 uM
Quantity Kind: Population Hoechst High Intensity Objects (%)
Unit % implied. Number only.

Example molecules with recorded Population Hoechst High Intensity Objects (%):
CN(C)CCCn1cc(C2=C(c3c[nH]c4ccccc34)C(=O)NC2=O)c2ccccc21: 0
CC(C)CNc1nc(N2CCN(CC3CCCOC3)CC2)ncc1C(=O)NCc1ccccc1 (stereo not given): 0
CN(C)Cc1cccc(NC(=C2C(=O)Nc3cc(C(=O)N(C)C)ccc32)c2ccccc2)c1: 0
COc1cc(/C=C(\C#N)C(=O)Nc2nnc(C(F)(F)F)s2)ccc1OCc1ccc(C(F)(F)F)cc1C(F)(F)F: 0

Lab note: next molecule to report on.
Record "NCCc1cn(S(=O)(=O)c2c(Cl)nc3sccn23)c2ccccc12.O=C(O)C(=O)O" , field Population Hoechst High Intensity Objects (%): 1

###

- System: Fibroblast
- Procedure Details: Multiplex assay against human fibroblast
- Format: toxicity, cell-based
- Test Settings: 48 h, 10 µM, compound concentration 10 uM
Below, each of the compounds is paired with its reported Population Normal (%) value.
Unit % implied. Number only.

CN1C[C@H](C(=O)N[C@]2(C)O[C@@]3(O)[C@@H]4CCCN4C(=O)[C@H](Cc4ccccc4)N3C2=O)C[C@@H]2c3cccc4[nH]cc(c34)C[C@H]21.CS(=O)(=O)O [DIHYDROERGOTAMINE MESYLATE]: 96
CC(C)(O)c1cnc(N2C[C@@]3(CCC[C@](C)(Cn4cnc5ccc(C#N)cc54)C3)OC2=O)cn1: 100
CC(=O)Nc1cccc2c1c(Sc1ccc(Cl)cc1)c(C)n2CC(=O)O: 95
COCCNc1cc(NC(=O)N2CCCc3cc(CN4CCN(C)CC4=O)c(C=O)nc32)ncc1C#N: 100
Cc1cc(C)c(NC(=O)C2CC3CCC2C3)c(C)c1 (stereo not drawn): 100

Form field, Population Normal (%) with Fibroblast, item "Cc1c(CC(=O)O)c2cccnc2n1Cc1ccc(S(C)(=O)=O)cc1C(F)(F)F" : 97

Form field, Population Normal (%) with Fibroblast, item "CC(=O)NCC(=O)N1[C@@H]2CC[C@H]1c1ccc(Nc3ncc(C(F)(F)F)c(NC4CCC4)n3)cc12" : 100

Form field, Population Normal (%) with Fibroblast, item "CN(C)CCCn1cc(C2=C(c3c[nH]c4ccccc34)C(=O)NC2=O)c2ccccc21" : 100

Form field, Population Normal (%) with Fibroblast, item "Nc1nccc(-c2ccn3c(N)nccc23)n1" : 100

Form field, Population Normal (%) with Fibroblast, item C[C@H](C[C@H](N)C(=O)O)C(=O)O [2S,4R-4-METHYLGLUTAMATE] : 100

Form field, Population Normal (%) with Fibroblast, item "O=C(NCc1cccc(O)c1)Nc1nc(-c2ccncc2)cs1" : 100

Form field, Population Normal (%) with Fibroblast, item "CN(C)Cc1cccc(NC(=C2C(=O)Nc3cc(C(=O)N(C)C)ccc32)c2ccccc2)c1" : 100

Form field, Population Normal (%) with Fibroblast, item "Cc1cccc(F)c1C(=O)Nc1cnc(-c2cc3c(cc2Cl)OC(F)(F)O3)cn1" : 100

Form field, Population Normal (%) with Fibroblast, item "COc1cc(/C=C(\C#N)C(=O)Nc2nnc(C(F)(F)F)s2)ccc1OCc1ccc(C(F)(F)F)cc1C(F)(F)F" : 100

Form field, Population Normal (%) with Fibroblast, item "Cc1cc(C)cc(C(=O)NOCCCCCC(=O)NO)c1" : 100

Form field, Population Normal (%) with Fibroblast, item Cc1[nH]nc2ccc(-c3cncc(OCC(N)Cc4c[nH]c5ccccc45)c3)cc12 (stereo not drawn) : 100

Form field, Population Normal (%) with Fibroblast, item "Cn1ncnc1COc1nn2c(-c3cc(F)ccc3F)nnc2cc1C(C)(C)C" : 100

Form field, Population Normal (%) with Fibroblast, item "COC(=O)c1ccc2c(c1)NC(=O)/C2=C(\Nc1ccc(N(C)C(=O)CN2CCN(C)CC2)cc1)c1ccccc1" : 100

meta.source: ChEMBL document CHEMBL5724801
